Could you please report measured inhibition for the items listed next?
- assay-target: Neuronal acetylcholine receptor; alpha3/beta4 (Homo sapiens) (UniProt P30926+P32297)
- measurement-notes: Antagonist activity at human recombinant alpha3beta4 nAChR expressed in human HEKtsA201 cells assessed as inhibition of epibatidine-stimulated calcium accumulation at 10 uM pretreated and cotreated with epibatidine by fluorescence plate reader analysis
- Assay type: cell-based

Param item = CCCC/C=C/C=C/C=C/[C@@H]1CC[C@H](O)[C@H](C)[N+]1(C)[O-] (stereo not given in full) ; retrieve measured inhibition.
82.8%

Next: CNC1(C)C2CCC(C2)C1(C)C (stereo not given)
88.3%

What do we get for CCCC/C=C/C=C/C=C/[C@@H]1CC[C@@H](O)[C@H](C)[N+]1(C)[O-] (stereo not given in full) ?
82.7%

Try the compound "O=C1c2ccccc2-c2c3c(cc4ccnc1c24)OCO3"
19.3%

====

- assay-target: Neuronal acetylcholine receptor; alpha4/beta2 (Homo sapiens) (UniProt P17787+P43681)
- measurement-notes: Antagonist activity at human recombinant alpha4beta2 nAChR expressed in human HEKtsA201 cells assessed as inhibition of epibatidine-stimulated calcium accumulation at 10 uM pretreated and cotreated with epibatidine by fluorescence plate reader analysis
- Format: cell-based
Assign a class from recorded inhibition; defined classes: low end (below 40%), middle (40% to below 70%), high end (70% or more)

Band for "CCCC/C=C/C=C/C=C/[C@@H]1CC[C@@H](OC(C)=O)[C@H](C)N1C" ?
middle

Another compound to look at: "CCCC/C=C/C=C/C=C/[C@@H]1CC[C@@H](O)[C@H](C)N1"
middle

And for "COc1cc2c3cc1Oc1cc(ccc1O)C[C@@H]1c4c(cc(OC)c(O)c4Oc4ccc(cc4)C[C@@H]3N(C)CC2)CC[N+]1(C)C" ?
middle

Follow-up item: CNC1(C)C2CCC(C2)C1(C)C (stereo not given)
high end

Now the compound CCCC/C=C/C=C/C=C/[C@@H]1CC[C@H](O)[C@H](C)[N+]1(C)[O-] (stereo not given in full)
middle

Proceed to CCCC/C=C/C=C/C=C/[C@@H]1CC[C@@H](O)[C@H](C)[N+]1(C)[O-] (stereo not given in full)
high end

Another compound to look at: "COc1ccc(CCNC(=O)/C=C/c2ccc(O)c(O)c2)cc1"
low end

Repeat with "O=C1c2ccccc2-c2c3c(cc4ccnc1c24)OCO3"
low end

# repeat for "CCCC/C=C/C=C/C=C/[C@@H]1CC[C@@H](O)[C@H](C)N1C"
high end

====

For each entry below, report its inhibition value.
- assay-target: Neuronal acetylcholine receptor; alpha3/beta4 (Homo sapiens) (UniProt P30926+P32297)
- measurement-notes: Antagonist activity at human recombinant alpha3beta4 nAChR expressed in human HEKtsA201 cells assessed as inhibition of epibatidine-stimulated calcium accumulation at 10 uM pretreated and cotreated with epibatidine by fluorescence plate reader analysis
- Format: cell-based
Could you give me the number in %? Just the number is fine.

Any idea what its inhibition is? The compound is "COc1cc2c3cc1Oc1cc(ccc1O)C[C@@H]1c4c(cc(OC)c(O)c4Oc4ccc(cc4)C[C@@H]3N(C)CC2)CC[N+]1(C)C"
54

Try the compound "COc1ccc(CCNC(=O)/C=C/c2ccc(O)c(O)c2)cc1"
14

// next record CCCC/C=C/C=C/C=C/[C@@H]1CC[C@@H](O)[C@H](C)N1C [MICROGREWIAPINE A]
58.2

"CCCC/C=C/C=C/C=C/[C@@H]1CC[C@@H](O)[C@H](C)N1" , same question.
53
